Listed below: cAMP production with saturated glucagon peptide; test compound 10 µM values for each entry.
molecular target: Human glucagon receptor (human, UniProt P47871 26-477); test: cell-based or functional assay
Where no end group is shown, it is not given here. [ ]: non-standard residue; d: D form. Aib = CC(C)(N)C(=O)O
Just the number in pmol/ml/µg prt, nothing appended.

Ask | Which value of cAMP production with saturated glucagon peptide; test compound 10 µM has been reported for HSQGTXTSDXX (α-Me-2F-Phe at 6; Bip(OMe) at 10; Bip(2F) at 11) [Seq. ID. No. 23: HSQGT-(α-Me-2F-Phe)-TSD-Bip(OMe)-Bip(2F)] in the records?
Reply | 0

Ask | Another binder: H[Aib]QGTFTSD[Bip(OMe)][Bip(Pyr)] [Seq. ID. No. 14: H-Aib-QGTFTSD-Bip(OMe)-Bip(Pyr)]
Reply | 0

Ask | Another binder: HXQGTXTSDXX (Aib at 2; α-Me-2F-Phe at 6; Bip(OMe) at 10; Bip(Pyr) at 11) [Seq. ID. No. 30: H-Aib-QGT-(α-Me-2F-Phe)-TSD-Bip(OMe)-Bip(Pyr)]
Reply | 0
